These entries and their values trace back to paper PMC11124822.

# Test system: BT-549
# experimental.details: NCI-60 antiproliferative screen (SRB)
# Type: cell-based, human
# condition.summary: Homo sapiens; 10 µM single dose, 48 h; BT-549 (Breast); read-out: Growth inhibition (%)
measurement.type: inhibition at 10 µM (%)

{"compound": "O=C1Nc2ccccc2C1=Cc1ccc(OCc2cccnc2)cc1 (mixture of isomers)", "measurement.type": "inhibition at 10 µM", "result.unit": "%", "result.number": 53.2}
{"compound": "O=C1Nc2cc(Cl)ccc2C1=Cc1ccc(OCc2ccccn2)cc1 (mixture of isomers)", "measurement.type": "inhibition at 10 µM", "result.unit": "%", "result.number": 33.8}
{"compound": "O=C1Nc2ccc(F)cc2C1=Cc1ccc(OCc2ccccn2)cc1 (mixture of isomers)", "measurement.type": "inhibition at 10 µM", "result.unit": "%", "result.number": 13.2}
{"compound": "O=C1Nc2ccc(Cl)cc2C1=Cc1ccc(OCc2cccnc2)cc1 (mixture of isomers)", "measurement.type": "inhibition at 10 µM", "result.unit": "%", "result.number": 14.5}
